Test system: Fibroblast
Test: Multiplex assay against human fibroblast
Type: toxicity, cell-based
Settings: 12 h, 1 µM, compound concentration 1 uM, replicate 2
RESULT_TYPE: Population Pyknosed Nuclei (%)
Expressed in %, but write only the number.

Look up and report measured Population Pyknosed Nuclei (%) for this entry: CCc1cccc(CC)c1NC(=O)c1nn(C)c2c1CCc1cnc(Nc3ccc(N4CCN(C)CC4)cc3OC)nc1-2 27

Look up and report measured Population Pyknosed Nuclei (%) for this entry: O=C(Cc1ccc(-c2ccc(OCCN3CCOCC3)cc2)cn1)NCc1ccccc1 4

Look up and report measured Population Pyknosed Nuclei (%) for this entry: CCc1cccc(CC)c1NC(=O)c1nn(C)c2c1CCc1cnc(Nc3ccc(C(=O)NC4CCN(C)CC4)cc3OC(F)(F)F)nc1-2 15

Look up and report measured Population Pyknosed Nuclei (%) for this entry: COc1cccc2cc(-c3nc([C@H]4CC[C@H](C(=O)O)CC4)n4ncnc(N)c34)[nH]c12 9

###

Tested on: HEK-293T
Assay: Multiplex assay against HEK293T
Assay type: toxicity, cell-based
Details: human, 12 h, 10 µM, compound concentration 10 uM, replicate 1
RESULT_TYPE: Population Healthy Nuclei (%)
Provide a numeric answer, followed by its unit.

// fetch Population Healthy Nuclei (%); item: Cn1nc(C(F)(F)F)cc1-c1cnc(N2CCc3cc(S(=O)(=O)Nc4c(F)cc(Cl)cc4F)cc(N4CCCC4=O)c32)nc1 [TP-020] ; system: HEK-293T 63%

// fetch Population Healthy Nuclei (%); item: C=C1/C(=C\C=C2/CCC[C@]3(C)[C@@H]([C@H](C)/C=C/[C@H](C)C(C)C)CC[C@@H]23)C[C@@H](O)C[C@@H]1O [DOXERCALCIFEROL] ; system: HEK-293T 25%

// fetch Population Healthy Nuclei (%); item: CNC(=O)c1ccc(Nc2nc(OC3CCCC3)c3c(-c4ccc5nc(C)oc5c4)c[nH]c3n2)c(OC)c1 ; system: HEK-293T 50%

// fetch Population Healthy Nuclei (%); item: COc1cc(N2CCN(C)CC2)ccc1Nc1ncc2c(n1)N(C)c1ccccc1C(=O)N2C ; system: HEK-293T 17%

// fetch Population Healthy Nuclei (%); item: O=C(Nc1ccc(Cl)cc1)Nc1cccc(-c2cccc(N3CCCC3)n2)c1 ; system: HEK-293T 2%

// fetch Population Healthy Nuclei (%); item: CCn1cc(-c2ccnc3[nH]c(-c4cccc(CN(C)C)c4)cc23)c(-c2ccc(NC(=O)N(C)C)cc2)n1 [GSK-1070916] ; system: HEK-293T 49%

// fetch Population Healthy Nuclei (%); item: CCN1CCN(Cc2ccc(Nc3ncc(F)c(-c4cc(F)c5nc(C)n(C(C)C)c5c4)n3)nc2)CC1.CS(=O)(=O)O ; system: HEK-293T 1%

###

Tested on: Fibroblast
Experiment: Multiplex assay against human fibroblast
Type: toxicity, cell-based
Conditions: 12 h, 10 µM, compound concentration 10 uM, replicate 2
Outcome label depends on Population Mitotic Cells (%) relative to 20%: at/above gives Fulfilled, below gives Not fulfilled.

Does the compound CCn1cc(-c2ccnc3[nH]c(-c4cccc(CN(C)C)c4)cc23)c(-c2ccc(NC(=O)N(C)C)cc2)n1 [GSK-1070916] have recorded Population Mitotic Cells (%) that is 20% or more? Fulfilled

Does the compound Cl.Oc1ccc2c3c1O[C@H]1c4[nH]c5c(c4C[C@@]4(O)[C@@H](C2)N(CC2CC2)CC[C@]314)C[C@@]1(O)[C@H]2Cc3ccc(O)c4c3[C@@]1(CCN2CC1CC1)[C@H]5O4 have recorded Population Mitotic Cells (%) that is 20% or more? Not fulfilled

Does the compound CCN1CCN(Cc2ccc(Nc3ncc(F)c(-c4cc(F)c5nc(C)n(C(C)C)c5c4)n3)nc2)CC1.CS(=O)(=O)O have recorded Population Mitotic Cells (%) that is 20% or more? Not fulfilled

Does the compound COc1cc2ncnc(Nc3ccc(F)c(Cl)c3)c2cc1NC(=O)/C=C/CN1CCCCC1 [DACOMITINIB ANHYDROUS] have recorded Population Mitotic Cells (%) that is 20% or more? Fulfilled

Does the compound CCOc1cc2ncc(C#N)c(Nc3ccc(OCc4ccccn4)c(Cl)c3)c2cc1NC(=O)/C=C/CN(C)C [NERATINIB] have recorded Population Mitotic Cells (%) that is 20% or more? Fulfilled

Does the compound CNc1cc(Oc2cc(C(=O)Nc3cc(N4CCN(C)CC4)cc(C(F)(F)F)c3)ccc2C)ncn1 have recorded Population Mitotic Cells (%) that is 20% or more? Fulfilled
